Attribute: AC50
# system name: p53 Y220C (Homo sapiens, UniProt P04637, Y220C)
# experiment summary: Luciferase Reporter Assay (Luc), p53 response element, NClH1299 cells with inducible p53 Y220C
# Type: cell-based
# reported conditions: luciferase reporter, NClH1299 inducible p53 Y220C, 6 hour; read-out: Luc P53 Y220C AC50
Where a name gives a salt, the structure may show the parent alone.

Check out these entries, answers already filled in.
Data request: Fill in the blank: the reported AC50 of CNC(=O)c1ccc(NCC#Cc2nc3c(N[C@@H]4CCN(C)C[C@@H]4F)cc(F)cn3c2CC(F)(F)F)c(OC)c1 [Example 99, formic acid salt] is ____.
Data returned: 0.75 to 1.5 µM

Data request: Fill blank: measured AC50 of the compound COC[C@@H](O)CN1CCC(Nc2cccn3c(CC(F)(F)F)c(C#CCNc4ccc(S(C)(=O)=O)cc4OC)nc23)CC1 is ____.
Data returned: 1.5 to 3 µM

More entries:
Data request: Consider the compound CNC(=O)c1ccc(NCC#Cc2nc3c(N[C@@H]4CCN(C)C[C@@H]4F)cccn3c2SC(F)(F)F)c(OC)n1 and give its measured AC50.
Data returned: < 0.75 µM

---

List of AC50 values.
# system name: p53 Y220C (Homo sapiens, UniProt P04637, Y220C)
# experiment summary: Luciferase Reporter Assay (Luc), p53 response element, NClH1299 cells with inducible p53 Y220C
# Assay type: cell-based
# reported conditions: luciferase reporter, NClH1299 inducible p53 Y220C, 6 hour; read-out: Luc P53 Y220C AC50

Check out these entries, answers already filled in.
Data request: Request the reported AC50 associated with CNC(=O)c1cc(OC)c(NCC#Cc2nc3c(N[C@@H]4CCN(C)C[C@@H]4F)cccn3c2SC(F)(F)F)cn1
Data returned: < 0.75 µM

Data request: Quick check: AC50 of CCOc1cc(C(=O)NC)ccc1NCC#Cc1nc2c(N[C@@H]3CCN(C)C[C@@H]3F)cccn2c1SC(F)(F)F ?
Data returned: < 0.75 µM

Data request: Fill blank: measured AC50 of the compound COc1cc(S(C)(=O)=O)ccc1NCC#Cc1nc2c(N[C@@H]3CCN(C)C[C@@H]3F)cccn2c1SC(F)(F)F is ____.
Data returned: < 0.75 µM

***
Data request: Query (compound): CNC(=O)c1ccc(NCC#Cc2nn3c(N[C@@H]4CCN(C)C[C@@H]4F)cccc3c2SC(F)F)c(OC)c1 ; field requested: AC50
Data returned: < 0.75 µM

Data request: # query: AC50 of entry COc1ccc(C(N)=O)nc1NCC#Cc1nc2c(N[C@@H]3CCN(C)C[C@@H]3F)cccn2c1SC(F)(F)F
Data returned: < 0.75 µM

Data request: Please report the recorded AC50 for CNC(=O)c1ccc(NCC#Cc2nc3c(N[C@@H]4CCN(C)C[C@@H]4F)cccn3c2C(F)(F)C(F)(F)F)c(OC)c1 .
Data returned: > 3 µM

Data request: Which AC50 reading was recorded for the compound CNC(=O)c1ccc(NCC#Cc2nc3c(N[C@@H]4CCOC[C@@H]4F)cccn3c2SC(F)(F)F)c(OC)c1 ?
Data returned: < 0.75 µM

Data request: Please give the measured AC50 for this compound: CNC(=O)c1ccc(NCC#Cc2nc3c(N[C@@H]4CCN(C)C[C@@H]4F)cccn3c2CC(F)(F)F)c(OC(F)(F)F)c1
Data returned: > 3 µM

Data request: What AC50 value was documented for this compound, COc1cc(C(=O)NC2CC2)ccc1NCC#Cc1nc2c(N[C@@H]3CCN(C)C[C@@H]3F)cccn2c1SC(F)(F)F ?
Data returned: < 0.75 µM

Data request: Form field: reported AC50 of COc1cc(S(C)(=O)=O)ccc1NCC#Cc1nc2c(NC3CCN(C)CC3)cc(N)cn2c1CC(F)(F)F
Data returned: > 3 µM

Data request: Recorded AC50 for CNC(=O)c1cncc(NCC#Cc2nc3c(N[C@@H]4CCN(C)C[C@@H]4F)cccn3c2SC(F)(F)F)c1 , please?
Data returned: 0.75 to 1.5 µM

Data request: Name the reported AC50 value associated with the compound CCOc1c(C#CCNc2ccc(C(=O)NC)cc2OC)nc2c(N[C@@H]3CCN(C)C[C@@H]3F)cccn12
Data returned: > 3 µM

Data request: What does the data say about its AC50? Entry: CNC(=O)c1ccc(NCC#Cc2nc3c(N[C@H]4CCNC(=O)C4)cccn3c2SC(F)(F)F)c(OC)c1
Data returned: 1.5 to 3 µM

Data request: Which AC50 value belongs to CNC(=O)c1ccc(NCC#Cc2nc3c(N[C@@H]4CCNC(=O)C4)cccn3c2SC(F)(F)F)c(OC)c1 ?
Data returned: > 3 µM

---

# system name: p53 Y220C (Homo sapiens, UniProt P04637, Y220C)
# experiment summary: Luciferase Reporter Assay (Luc), p53 response element, NClH1299 cells with inducible p53 Y220C
# Format: cell-based
# reported conditions: luciferase reporter, NClH1299 inducible p53 Y220C, 6 hour; read-out: Luc P53 Y220C AC50
measured property: AC50

Data request: Quick one: AC50 of CNC(=O)c1ccc(NCC#Cc2nc3c(N[C@@H]4CCn5nccc5C4)cccn3c2SC(F)(F)F)c(OC)c1 ?
Data returned: 1500 to 3000 nM

Data request: Given the entry CNC(=O)c1ccc(NCC#Cc2nc3c(NC4CCN(C)CC4)cccn3c2SC(F)(F)F)c(OC)c1 , report its measured AC50.
Data returned: < 750 nM

Data request: So what does the record say about AC50 for CNS(=O)(=O)c1ccc(OC)c(NCC#Cc2cc3c(N[C@@H]4CCN(C)C[C@@H]4F)cccn3c2SC(F)(F)F)c1 ?
Data returned: < 750 nM

Data request: Form field: reported AC50 of CNC(=O)c1ccc(OC)c(NCC#Cc2nc3c(N[C@@H]4CCNC[C@@H]4F)cccn3c2SC(F)(F)F)n1
Data returned: < 750 nM

---

# system name: p53 Y220C (Homo sapiens, UniProt P04637, Y220C)
# experiment summary: Luciferase Reporter Assay (Luc), p53 response element, NClH1299 cells with inducible p53 Y220C
# Assay type: cell-based
# reported conditions: luciferase reporter, NClH1299 inducible p53 Y220C, 6 hour; 10 uM tool compound as positive control
Known Emax of a selection of compounds

Data request: Name the reported Emax value associated with the compound COc1ncc(C(N)=O)cc1NCC#Cc1nc2c(N[C@@H]3CCN(C)C[C@@H]3F)cccn2c1SC(F)(F)F
Data returned: 80 to 90%

Data request: Request the reported Emax associated with CNC(=O)c1ccc(NCC#Cc2nc3c(N[C@H]4CCC(=O)NC4)cccn3c2SC(F)(F)F)c(OC)c1
Data returned: 80 to 90%

***
Data request: Item under review: C[C@H](O)C#Cc1nc2c(N[C@@H]3CCN(C)C[C@@H]3F)cccn2c1CC(F)(F)F . Reported Emax?
Data returned: < 70%

Data request: Reported Emax for CNC(=O)c1ccc(NCC#Cc2nc3c(N[C@H]4CCc5nncn5C4)cccn3c2SC(F)(F)F)c(OC)c1 : what is it?
Data returned: < 70%

---

# system name: p53 Y220C mutant protein (amino acid residues 94-293) (Homo sapiens, UniProt P04637, Y220C)
# Construct: p53 Y220C mutant protein (amino acid residues 94-293)
# experiment summary: Surface Plasmon Resonance (SPR) assay, Kd_kinetic
# Format: binding
# reported conditions: SPR; p53 Y220C; read-out: SPR P53 Y220C KD kinetic
pKd: −log10 of the molar value.
measured property: pKd

Take a look at these entries with their results.
Data request: Looking for the measured pKd of CNC(=O)c1ccc(NCC#Cc2nn3c(N[C@@H]4CCNC[C@@H]4F)cccc3c2SC(F)(F)F)c(OC)c1 , can you help?
Data returned: > 8.00

Data request: Return reported pKd; argument: CNC(=O)c1ccc(OC)c(NCC#Cc2cc3c(N[C@@H]4CCNC[C@@H]4F)nccn3c2SC(F)(F)F)n1
Data returned: > 8.00

Data request: I am curious: what pKd value has been reported for CNC(=O)c1cnc(OC)c(NCC#Cc2cc3c(N[C@@H]4CCN(C)C[C@@H]4F)nccn3c2SC(F)(F)F)c1 ?
Data returned: > 8.00

Next:
Data request: Given the compound COc1cc(C(=O)NC[C@H](O)CO)ccc1NCC#Cc1cc2c(N[C@@H]3CCN(C)C[C@@H]3F)cccn2c1SC(F)(F)F , what is its reported pKd?
Data returned: > 8.00

---

# system name: p53 Y220C mutant protein (amino acid residues 94-293) (Homo sapiens, UniProt P04637, Y220C)
# Construct: p53 Y220C mutant protein (amino acid residues 94-293)
# experiment summary: Thermal Shift Assay (TSA), dTM
# Format: binding
# reported conditions: thermal shift, 100 uM compound; read-out: TSA P53 Y220C dTM (100 uM)
measured property: ΔTm at 100 µM

Data request: Which ΔTm at 100 µM is listed for CNC(=O)c1ccc(NCC#Cc2nn3c(N[C@@H]4CCN(C)C[C@@H]4F)cccc3c2SC(F)F)c(OC)c1 ?
Data returned: 5 to 10 °C

Next:
Data request: May I ask what ΔTm at 100 µM has been recorded for CN1CC[C@@H](Nc2cccn3c(CC(F)(F)F)c(C#CCNc4ccc(S(C)(=O)=O)cc4F)nc23)[C@@H](F)C1 ?
Data returned: 5 to 10 °C

Data request: What value of measured ΔTm at 100 µM is listed for CNC(=O)c1ccc(NCC#Cc2nc3c(N[C@@H]4CCN(C)C[C@@H]4F)cccn3c2CC(F)(F)F)c(OC)c1 ?
Data returned: ≥ 10 °C
